Catalogue of pKi values
molecular target: BCL2 WT (Homo sapiens (Human), UniProt P10415); experiment: TR-FRET competitive binding assay, BCL2 WT; conditions: Ki determined from IC50, read-out: TR_FRET EKI_Bcl2 WT
Sequence (P10415 other isoform, or with tags, fused parts or gaps): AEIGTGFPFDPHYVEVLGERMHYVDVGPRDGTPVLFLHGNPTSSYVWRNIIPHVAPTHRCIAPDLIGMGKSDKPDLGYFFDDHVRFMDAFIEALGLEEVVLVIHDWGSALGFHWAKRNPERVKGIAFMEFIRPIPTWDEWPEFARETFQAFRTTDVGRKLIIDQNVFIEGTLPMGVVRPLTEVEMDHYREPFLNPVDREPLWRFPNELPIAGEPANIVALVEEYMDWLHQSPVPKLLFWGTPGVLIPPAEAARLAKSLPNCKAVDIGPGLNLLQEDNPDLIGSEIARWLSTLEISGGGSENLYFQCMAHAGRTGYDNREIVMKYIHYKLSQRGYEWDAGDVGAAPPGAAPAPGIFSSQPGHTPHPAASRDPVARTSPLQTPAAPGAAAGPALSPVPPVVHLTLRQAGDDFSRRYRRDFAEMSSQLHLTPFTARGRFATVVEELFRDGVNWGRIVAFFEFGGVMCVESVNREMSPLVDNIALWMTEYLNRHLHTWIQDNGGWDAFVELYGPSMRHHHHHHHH
Scale note: pKi = -log10(concentration in M).

[[record]]
compound = "Cc1c(N(C(=O)c2cc(-c3cc4c(cc3C(=O)N3Cc5ccccc5C[C@H]3CN3CCC(C)(C)C3)CN(C(=O)Cc3ccc(OCCN5CCOCC5)cc3F)CC4)n(C)c2C)c2ccc(O)cc2)cc(C#N)n1C [Example 146]"
property_label = "pKi"
test_result = 10.40

[[record]]
compound = "Cc1c(C(=O)N(c2ccc(O)cc2)c2cc(C#N)n(C(F)F)c2C)cc(-c2cc3c(cc2C(=O)N2Cc4ccccc4C[C@H]2CN2CCCCC2)CN(C(=O)Cc2ccc(OCCN4CCN(CCF)CC4)cc2F)CC3)n1C [Example 159]"
property_label = "pKi"
test_result = 10.30


Now for the compound whose pKi we want.
Suppose we examine the compound Cc1c(N(C(=O)c2cc(-c3cc4c(cc3C(=O)N3Cc5ccccc5C[C@H]3C)CN(C(=O)c3ccccc3)CC4)n(C)c2C)c2ccc(O)cc2)cc(C#N)n1C [Example 25] ; what pKi value has been reported?
9.77
